- target: T1, human CD30L expressed on cells (human, UniProt P32971 1-234)
- T1 sequence (looked up): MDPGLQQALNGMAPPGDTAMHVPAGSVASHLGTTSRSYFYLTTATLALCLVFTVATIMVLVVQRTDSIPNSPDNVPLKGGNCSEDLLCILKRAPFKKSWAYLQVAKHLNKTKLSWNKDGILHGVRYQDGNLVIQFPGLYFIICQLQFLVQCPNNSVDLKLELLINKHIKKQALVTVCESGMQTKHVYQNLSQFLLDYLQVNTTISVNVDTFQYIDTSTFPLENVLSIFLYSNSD
- assay method text: cell-based or functional assay
readout type: Inhibition of IL-8 release in a dual cell assay (B16-huCD30L cells + K299 cells) IC50 (nM)

binder	unit	numeric readout
Clone 1, Human IgG1 (antibody, V domains shown, Human IgG1 format) VH: QVQLQESGPGLVKPSETLSLTCTVSGGSISGYYWSWIRQPPVKGLEWIGYIFYSGYTKYNPSLKSRVTISVDTSKNQFSLKLSSVTAADTAVYYCARDRWDFDYWGQGALVTVSS VL: AIQMTQSPSYLSASVGDRVTIACRASQGIRNNLGWYQQKPGKAPKLLIYAESSLQSGVPSRFSGSGSGTDFTLTISSLQPEDFATYYCLQDFNYPYTFGQGTKLEIK	nM	1.1
